# ASSAY TEXT: Solid phase stability experiment (XRPD, HPLC, TGA after one week)
# Format: physicochemical
# CONDITION: 5° C. (control), sealed, HPLC
Each entry below carries its recorded Purity (%).
Respond numerically; units are % and should not be typed.

As a guide, the following entries are already answered.
1. C=CC(=O)Nc1cc(Nc2ncc(F)c(-c3cnn(C)c3)n2)c(OC)cc1N1CCC(N(C)C)CC1.O=P(O)(O)O [crystal form B]: 99.56
2. C=CC(=O)Nc1cc(Nc2ncc(F)c(-c3cnn(C)c3)n2)c(OC)cc1N1CCC(N(C)C)CC1.O=C(O)/C=C\C(=O)O [crystal form C-1]: 99.39

## Input Requested field: Purity (%). Item: C=CC(=O)Nc1cc(Nc2ncc(F)c(-c3cnn(C)c3)n2)c(OC)cc1N1CCC(N(C)C)CC1.O=C(O)CCCCC(=O)O [crystal form E]
## Output 99.30
